Values compiled from patent US10011615B2.

Molecular target: human A2a receptor (Homo sapiens)
Test: A2a receptor competition binding assay using Scintillation Proximity technology
Details: membranes from HEK293 cells expressing human A2a receptor; 0.5 nM tritiated radioligand; SPA beads; 1 h room temperature
pEC50: −log10 of the molar value.
endpoint: pEC50

Example entries and their recorded answers appear below.
compound	pEC50
COc1cccc2c1nc(N)n1nc(CCN3CCn4nc(C5CC5)nc4C3)nc21 [Ex-12]	8.70
COc1cccc2c1nc(N)n1nc(CN3CCc4cccnc4C3)nc21 [Ex-123]	8.25
COc1cccc2c1nc(N)n1nc(C[C@@H](C)N3CCn4nc(C)cc4C3)nc21 [Ex-221]	8.41
COc1cccc2c1nc(N)n1nc(CCN3Cc4nc(C)sc4C3)nc21 [Ex-14]	8.82
COc1cccc2c1nc(N)n1nc(CCN3Cc4cn[nH]c4C3)nc21 [Ex-51]	8.54

P = COc1cccc2c1nc(N)n1nc(CCN3Cc4ccc(N5CCN(c6ccc(F)cc6)CC5)nc4C3)nc21 [Ex-71]
Q = COc1cccc2c1nc(N)n1nc(CCN3CCCc4[nH]nc(C5CC5)c43)nc21 [Ex-52]
R = COc1cccc2c1nc(N)n1nc(CCN3CCc4oc(C)nc4C3)nc21 [Ex-27]
S = COc1cccc2c1nc(N)n1nc(CN3Cc4nc(C(C)C)sc4C3)nc21 [Ex-149]
Hey, quick one: sort these by pEC50, largest value first please. Write out the labels following the order that was asked for.
R, P, Q, S

----------
Biological target: human A2a receptor (Homo sapiens, UniProt P29274)
Sequence (P29274 whole entry): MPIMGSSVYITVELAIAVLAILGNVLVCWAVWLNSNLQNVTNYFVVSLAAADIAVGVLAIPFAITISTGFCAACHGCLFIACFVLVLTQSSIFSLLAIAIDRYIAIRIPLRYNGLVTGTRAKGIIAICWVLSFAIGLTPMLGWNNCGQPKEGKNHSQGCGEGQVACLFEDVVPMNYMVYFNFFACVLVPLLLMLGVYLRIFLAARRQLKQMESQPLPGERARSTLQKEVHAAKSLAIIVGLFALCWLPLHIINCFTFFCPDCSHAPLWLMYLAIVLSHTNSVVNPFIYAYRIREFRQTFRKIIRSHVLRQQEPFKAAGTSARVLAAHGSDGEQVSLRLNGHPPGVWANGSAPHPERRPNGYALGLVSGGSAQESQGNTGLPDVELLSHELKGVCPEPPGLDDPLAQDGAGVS
Assay: A2a receptor competition binding assay using Scintillation Proximity technology
Conditions: membranes from HEK293 cells expressing human A2a receptor; 0.5 nM tritiated radioligand; SPA beads; 1 h room temperature
endpoint: EC50 (nM)

compound	EC50 [nM]
COc1cccc2c1nc(N)n1nc(CCN3Cc4cnn(C)c4C3)nc21 [Ex-246]	5.4
COc1cccc2c1nc(N)n1nc(CCN3CCc4ncsc4C3)nc21 [Ex-56]	3.4

1 = COc1cccc2c1nc(N)n1nc(CCN3CCn4c(nnc4C(=O)NC(C)(C)C)C3)nc21 [Ex-2]
2 = COc1cccc2c1nc(N)n1nc(C[C@H](C)N3Cc4cccnc4C3)nc21 [Ex-106]
Input pair: 1 , 2 . Output: entry with lower EC50. Your answer should be the label attached to the chosen record.
1

P = COc1cccc2c1nc(N)n1nc(CN3CCc4ccc(NC(=O)c5ccccn5)cc4C3)nc21 [Ex-166]
Q = COc1cccc2c1nc(N)n1nc(CCN3Cc4ccc(C(F)(F)F)cc4C3)nc21 [Ex-46]
Input pair: P , Q . Output: entry with lower EC50. Your answer should be the label attached to the chosen record.
P

----------
Biological target: UniProt:P29274
Test: A2a receptor competition binding assay using Scintillation Proximity technology
Settings: membranes from HEK293 cells expressing human A2a receptor; 0.5 nM tritiated radioligand; SPA beads; 1 h room temperature
endpoint: EC50 (nM)

molecule	EC50 [nM]
CCc1nc2c(s1)CN(CCc1nc3c4cccc(OC)c4nc(N)n3n1)C2 [Ex-243]	1.3
CCOc1cccc2c1nc(N)n1nc(CN3Cc4cccnc4C3)nc21 [Ex-203]	88.3
COc1cccc2c1nc(N)n1nc(CN3CCCCc4ccc(Cl)nc43)nc21 [Ex-160]	1.5
COc1ccc2c(nc(N)n3nc(CCN4Cc5cccnc5C4)nc23)c1OC [Ex-97]	238
Nc1nc2cc(F)ccc2c2nc(CCN3Cc4cccc(F)c4C3)nn12 [Ex-96]	56.2
COc1cccc2c1nc(N)n1nc(CCN3Cc4nc(C5CC5)sc4C3)nc21 [Ex-241]	7.3
Nc1nc2c(OCF)cccc2c2nc(CN3CCc4cccnc4C3)nn12 [Ex-205]	10.9
COc1cccc2c1nc(N)n1nc(CN3CCc4cccc(CN5CCN(c6ccccn6)CC5)c4C3)nc21 [Ex-126]	31.6
COc1cccc2c1nc(N)n1nc(CCN3CCc4nc(C5CC5)oc4C3)nc21 [Ex-31]	1.3
COc1cccc2c1nc(N)n1nc(CCN3CCn4nc(C(F)(F)F)nc4C3)nc21 [Ex-11]	2.7

I = COc1cccc2c1nc(N)n1nc(CCN3CCn4c(cnc4C(C)C)C3)nc21 [Ex-8]
II = COc1cccc2c1nc(N)n1nc(CCN3CCn4cc(C(=O)C5CC5)nc4C3)nc21 [Ex-10]
Rank I against II by their EC50 values and give the higher one. Your answer should be the label attached to the chosen record.
I
(I: 2.2 nM, II: 1.2 nM)

I = Cc1cccc2c1nc(N)n1nc(CN3Cc4cccnc4C3)nc21 [Ex-200]
II = COc1cccc2c1nc(N)n1nc(CN3CCc4cccc(-c5cncnc5)c4C3)nc21 [Ex-177]
Input pair: I , II . Output: entry with lower EC50. Your answer should be the label attached to the chosen record.
II
(II: 17 nM, I: 35.5 nM)

----------
Target: human A2a receptor (Homo sapiens)
Assay: A2a receptor competition binding assay using Scintillation Proximity technology
Settings: membranes from HEK293 cells expressing human A2a receptor; 0.5 nM tritiated radioligand; SPA beads; 1 h room temperature
endpoint: EC50 (nM)

molecule	tgt	result_unit	EC50
COc1cccc2c1nc(N)n1nc(CCN3Cc4ccc(N5C[C@@H](C)O[C@@H](C)C5)nc4C3)nc21 [Ex-69]	human A2a receptor (Homo sapiens)	nM	5.2

A = COc1cccc2c1nc(N)n1nc(CN3CCc4c(Br)ccnc4C3)nc21 [Ex-148]
B = COc1cccc2c1nc(N)n1nc(CN3CCCc4ccncc43)nc21 [Ex-135]
C = COc1cccc2c1nc(N)n1nc(CN3CCn4c(Br)nnc4C3)nc21 [Ex-140]
D = COc1cccc2c1nc(N)n1nc(CCN3CCc4sc(C)nc4C3)nc21 [Ex-25]
Order the entries by their reported EC50, beginning at the minimum. Write out the labels following the order that was asked for.
D, A, B, C
(D: 0.9 nM, A: 7.2 nM, B: 11.8 nM, C: 104 nM)

----------
Molecular target: UniProt P29274
Assay: A2a receptor competition binding assay using Scintillation Proximity technology
Details: membranes from HEK293 cells expressing human A2a receptor; 0.5 nM tritiated radioligand; SPA beads; 1 h room temperature
endpoint: EC50 (nM)

Example entries and their recorded answers appear below.
compound	reported_measurement
COc1cccc2c1nc(N)n1nc(CCN3CCn4nccc43)nc21	4.2
COc1cccc2c1nc(N)n1nc(CN3CCc4nccnc4C3)nc21	27.6
COc1cccc2c1nc(N)n1nc(CCN3Cc4ccc(N5CCOC(C)(C)C5)nc4C3)nc21	7
COc1cccc2c1nc(N)n1nc(CN3CCCc4cccnc43)nc21	2.1
COc1cccc2c1nc(N)n1nc(CCN3CCc4nc(C5CC5)sc4C3)nc21	1.1
COc1cccc2c1nc(N)n1nc(CCN3CCc4c(cnn4C4CC4)C3)nc21	1.4

1 = COc1cccc2c1nc(N)n1nc(CCN3CCc4cc(F)ccc4C3)nc21
2 = COc1cccc2c1nc(N)n1nc(CCN3CCc4ccc(-c5cnc(C(F)(F)F)nc5)cc4C3)nc21
Input pair: 1 , 2 . Output: entry with lower EC50. Your answer should be the label attached to the chosen record.
2
(2: 2.9 nM, 1: 4.2 nM)

A = COc1cccc2c1nc(N)n1nc(CCN3CCc4cncnc4C3)nc21
B = COc1cccc2c1nc(N)n1nc(CCN3CCn4c(nnc4C(F)(F)F)C3)nc21
Rank A against B by their EC50 values and give the higher one. Your answer should be the label attached to the chosen record.
B

----------
Target: human A2a receptor (Homo sapiens, UniProt P29274)
Assay: A2a receptor competition binding assay using Scintillation Proximity technology
Conditions: membranes from HEK293 cells expressing human A2a receptor; 0.5 nM tritiated radioligand; SPA beads; 1 h room temperature
endpoint: EC50 (nM)

Example entries and their recorded answers appear below.
compound	reported_measurement
COc1cccc2c1nc(N)n1nc(CCN3CCc4nccnc4C3)nc21 [Ex-55]	1.8
COc1cccc2c1nc(N)n1nc(CN3CCOc4ccccc43)nc21 [Ex-120]	1.5
COc1cccc2c1nc(N)n1nc(CN3CCn4c(C(F)(F)F)nnc4C3(C)C)nc21 [Ex-146]	29.9
CCN(CC)c1ccnc2c1CCN(CCc1nc3c4cccc(OC)c4nc(N)n3n1)C2 [Ex-74]	4.3
COc1cccc2c1nc(N)n1nc(C[C@@H](C)N3CCc4oc(C)nc4C3)nc21 [Ex-214]	29

I = COc1cccc2c1nc(N)n1nc(CN3CCc4ccc(-c5ccccc5C(F)(F)F)cc4C3)nc21 [Ex-185]
II = CCN1CCN(c2ccnc3c2CCN(CCc2nc4c5cccc(OC)c5nc(N)n4n2)C3)CC1 [Ex-73]
III = N#Cc1cccc2c1nc(N)n1nc(CN3CCc4cccnc4C3)nc21 [Ex-196]
Hey, quick one: sort these by EC50, largest value first please. Write out the labels following the order that was asked for.
III, I, II

I = COc1cccc2c1nc(N)n1nc(CCN3CCc4c(N5CCC(F)(F)C5)ccnc4C3)nc21 [Ex-76]
II = COc1cccc2c1nc(N)n1nc(CN3Cc4ccc(F)cc4C3)nc21 [Ex-117]
Rank I against II by their EC50 values and give the higher one. Your answer should be the label attached to the chosen record.
II
(II: 5.9 nM, I: 3.7 nM)

1 = COc1cccc2c1nc(N)n1nc(CCN3Cc4ccccc4C(C)(C)C3)nc21 [Ex-62]
2 = COCc1cccc2c1nc(N)n1nc(CN3CCc4cccnc4C3)nc21 [Ex-199]
Rank 1 against 2 by their EC50 values and give the higher one. Your answer should be the label attached to the chosen record.
2
(2: 199 nM, 1: 6.2 nM)

P = CCOC(=O)c1nnc2n1CCN(CCc1nc3c4cccc(OC)c4nc(N)n3n1)C2 [Ex-4]
Q = COc1cccc2c1nc(N)n1nc(C[C@@H](C)N3CCc4nc(C)oc4C3)nc21 [Ex-211]
R = COc1cccc2c1nc(N)n1nc(CCN3Cc4nc(C(C)C)sc4C3)nc21 [Ex-242]
S = COc1cccc2c1nc(N)n1nc(CCN3CCc4c(C(F)(F)F)n[nH]c4C3)nc21 [Ex-42]
T = COc1cccc2c1nc(N)n1nc(CN3Cc4nnc(C(F)(F)F)n4C(C)(C)C3)nc21 [Ex-145]
Order the entries by their reported EC50, beginning at the minimum. Write out the labels following the order that was asked for.
R, S, Q, P, T
